Molecular target: Rhesus PDE2A3 (Macaca mulatta)
Experiment: PDE2 fluorescence polarization (IMAP FP) inhibition assay, rhesus enzyme
Format: biochemical, rhesus macaque
Settings: Rhesus PDE2, Lab A; read-out: Rhesus PDE2 Ki (nM) - Lab A
Readout Name: log10 of Ki (log10 of the value in nM)
On a log10 scale: recorded Ki, unit nM.

Looking up CC(C)[C@@H](NC(=O)c1cc(=O)[nH]c(-c2ccccc2)n1)c1ccc(C(F)(F)F)cc1 [Example 167] , I see its log10 of Ki listed as 0.36

Looking up CSCC(NC(=O)c1cc(=O)[nH]c(C)n1)c1ccc(C(F)(F)F)cc1 (centres unmarked) [Example 131] , I see its log10 of Ki listed as 2.23

Looking up O=C(NC1(c2ccc(C(F)(F)F)c(F)c2)CC1)c1cc(=O)[nH]c(C2CC2)n1 [Example 202] , I see its log10 of Ki listed as 0.86

Looking up Cc1nc(C(=O)N[C@H](C)c2ccc(-c3ccccc3F)cc2)cc(=O)[nH]1 [Example 324] , I see its log10 of Ki listed as 2.12

Looking up O=C(NCc1ccc(S(F)(F)(F)(F)F)cc1)c1cc(=O)[nH]c(-c2ccccc2)n1 [Example 377] , I see its log10 of Ki listed as 1.45

Looking up CC[C@@H](NC(=O)c1cc(=O)[nH]c(C)n1)c1ccc(S(F)(F)(F)(F)F)cc1 [Example 51] , I see its log10 of Ki listed as 1.26

Looking up Cc1nc(C(=O)N[C@@H](c2ccc(C(F)(F)F)cc2)C(C)C)cc(=O)[nH]1 [Example 316] , I see its log10 of Ki listed as 1.11

Looking up Cc1nc(C(=O)N[C@H](C)c2ccc3ccccc3c2)cc(=O)[nH]1 [Example 16] , I see its log10 of Ki listed as 1.87

Looking up CC(NC(=O)c1cc(=O)[nH]c(-c2ccccc2)n1)c1ccncc1 (centres unmarked) [Example 358] , I see its log10 of Ki listed as 4.06

Looking up C[C@@H](NC(=O)c1cc(=O)[nH]c(C2CC2)n1)c1ccc(C2CC2)cc1 [Example 256] , I see its log10 of Ki listed as 1.11

Looking up CC(C)[C@@H](NC(=O)c1cc(=O)[nH]c(-c2ncccn2)n1)c1ccc(C(F)(F)F)cc1 [Example 73] , I see its log10 of Ki listed as 0.61

Looking up Cc1nc(C(=O)NCc2ccc(C(F)(F)F)cc2C)cc(=O)[nH]1 [Example 23] , I see its log10 of Ki listed as 3.59

Looking up Cc1nc(C(=O)N[C@H](C)c2ccc(C3CC3)cc2)cc(=O)[nH]1 [Example 258] , I see its log10 of Ki listed as 1.28

Looking up O=C(N[C@@H](c1ccc(OC(F)(F)F)c(F)c1)C1CC1)c1cc(=O)[nH]c(-c2ncccn2)n1 [Example 93] , I see its log10 of Ki listed as 1.54

Looking up CC[C@@H](NC(=O)c1cc(=O)[nH]c(C)n1)c1ccc(OC(F)(F)F)cc1 [Example 31] , I see its log10 of Ki listed as 1.45

----------
Biological target: Rhesus PDE2A3 (Macaca mulatta)
Experiment: PDE2 fluorescence polarization (IMAP FP) inhibition assay, rhesus enzyme
Assay type: biochemical, rhesus macaque
Conditions: Rhesus PDE2, Lab A; read-out: Rhesus PDE2 Ki (nM) - Lab A
Method: The activity of the compounds in accordance with the present invention as PDE2 inhibitors may be readily determined using a fluorescence polarization (FP) methodology (Huang, W., et al., J. Biomol Screen, 2002, 7: 215). In a typical experiment the PDE2 inhibitory activity of the compounds of the present invention was determined in accordance with the following experimental method. […] 0% of inhibition is determined by using DMSO (1% final concentrations). […]
Readout Name: Ki (nM)
The reply should contain only the number, in nM.

Looking up C[C@@H](NC(=O)c1cc(=O)[nH]c(Cc2ccc(F)cc2)n1)c1ccc(C(F)(F)F)cc1 [Example 132] , I see its Ki listed as 34

Looking up O=C(NC1(c2ccc(C(F)(F)F)cc2)CCC1)c1cc(=O)[nH]c(-c2ncccn2)n1 [Example 286] , I see its Ki listed as 83

Looking up Cc1cc(C(F)(F)F)ccc1C(C)NC(=O)c1cc(=O)[nH]c(-c2ncccn2)n1 (centres unmarked) [Example 90] , I see its Ki listed as 732

Looking up Cc1nc(C(=O)N[C@H](C)c2ccc(OC(F)(F)F)c(F)c2)cc(=O)[nH]1 [Example 22] , I see its Ki listed as 13

Looking up COc1ccc(Cc2nc(C(=O)N[C@H](C)c3ccc(C(F)(F)F)cc3)cc(=O)[nH]2)cc1 [Example 136] , I see its Ki listed as 6.3

Looking up O=C(NCc1ccc(C(F)(F)F)cc1)c1cc(=O)[nH]c(-c2ccccc2)n1 [Example 371] , I see its Ki listed as 68

Looking up O=C(NC1(c2ccc(OC(F)(F)F)cc2)CC1)c1cc(=O)[nH]c(C2CC2)n1 [Example 299] , I see its Ki listed as 14

Looking up CC[C@@H](NC(=O)c1cc(=O)[nH]c(-c2ccccc2)n1)c1ccc(OC(F)(F)F)cc1 [Example 179] , I see its Ki listed as 4

----------
Target: Rhesus PDE2A3 (Macaca mulatta, UniProt B3VTJ2)
Sequence (B3VTJ2 1-941): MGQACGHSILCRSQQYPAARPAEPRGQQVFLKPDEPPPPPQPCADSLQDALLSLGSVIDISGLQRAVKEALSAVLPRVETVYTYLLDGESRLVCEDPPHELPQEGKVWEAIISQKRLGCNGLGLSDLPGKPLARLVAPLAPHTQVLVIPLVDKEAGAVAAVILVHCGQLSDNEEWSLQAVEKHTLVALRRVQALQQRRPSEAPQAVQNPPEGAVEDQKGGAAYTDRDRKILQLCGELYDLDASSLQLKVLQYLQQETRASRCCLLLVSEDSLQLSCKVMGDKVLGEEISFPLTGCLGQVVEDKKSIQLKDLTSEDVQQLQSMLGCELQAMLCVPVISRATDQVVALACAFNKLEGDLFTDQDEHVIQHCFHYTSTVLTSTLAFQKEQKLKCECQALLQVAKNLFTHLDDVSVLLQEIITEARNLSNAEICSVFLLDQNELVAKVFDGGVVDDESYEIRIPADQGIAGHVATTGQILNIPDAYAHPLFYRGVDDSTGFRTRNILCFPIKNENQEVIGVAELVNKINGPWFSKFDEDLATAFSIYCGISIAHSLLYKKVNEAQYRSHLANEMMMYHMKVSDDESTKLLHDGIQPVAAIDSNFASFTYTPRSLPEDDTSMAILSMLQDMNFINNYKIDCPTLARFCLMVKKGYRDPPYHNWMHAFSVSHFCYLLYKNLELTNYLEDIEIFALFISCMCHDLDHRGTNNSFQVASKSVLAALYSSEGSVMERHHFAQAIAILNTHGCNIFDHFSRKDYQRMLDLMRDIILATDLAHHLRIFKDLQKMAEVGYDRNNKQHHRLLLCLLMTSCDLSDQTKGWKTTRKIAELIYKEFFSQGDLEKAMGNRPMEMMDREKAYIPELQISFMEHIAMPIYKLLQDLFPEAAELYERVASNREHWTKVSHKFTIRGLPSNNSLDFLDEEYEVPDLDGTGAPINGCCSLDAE
Experiment: PDE2 fluorescence polarization (IMAP FP) inhibition assay, rhesus enzyme
Type: biochemical, rhesus macaque
Conditions: Rhesus PDE2, Lab B; read-out: Rhesus PDE2 Ki (nM) - Lab B
For each of the compounds below, state its Ki.
The reply should contain only the number, in nM.

Looking up Cc1nc(C(=O)N[C@@H](c2ccc(C3CC3)cc2)C2CC2)cc(=O)[nH]1 [Example 50] , I see its Ki listed as 11

Looking up COc1ccc(C(C)(C)c2nc(C(=O)N[C@@H](c3ccc(C(F)(F)F)cc3)C(C)C)cc(=O)[nH]2)cc1 [Example 493] , I see its Ki listed as 77

Looking up COc1ccc(Cc2nc(C(=O)N[C@@H](c3ccc(OC(F)(F)F)cc3)C(C)C)cc(=O)[nH]2)cc1F [Example 517] , I see its Ki listed as 1.3

Looking up C[C@H](c1ccc(C(F)(F)F)cc1)N(C)C(=O)c1cc(=O)[nH]c(-c2ccccc2)n1 [Example 389] , I see its Ki listed as 8980

Looking up COc1ccc(Cc2nc(C(=O)N[C@@H](c3ccc(SC(F)(F)F)cc3)C3CC3)cc(=O)[nH]2)cc1F [Example 523] , I see its Ki listed as 2.8

Looking up CC(C)(C)[C@@H](NC(=O)c1cc(=O)[nH]c(-c2ncccn2)n1)c1ccc(OC(F)(F)F)cc1 [Example 461] , I see its Ki listed as 7.5

Looking up CC(C)[C@@H](NC(=O)c1cc(=O)[nH]c(C2CC2)n1)c1ccc(S(F)(F)(F)(F)F)cc1 [Example 247] , I see its Ki listed as 2.5

Looking up CC(C)(C)[C@@H](NC(=O)c1cc(=O)[nH]c(C2CC2)n1)c1ccc(CC(F)(F)F)cc1 [Example 441] , I see its Ki listed as 3.8

Looking up Cc1nc(C(=O)NC2(c3ccc(S(F)(F)(F)(F)F)cc3)CC2)cc(=O)[nH]1 [Example 622] , I see its Ki listed as 32

Looking up CC[C@@H](NC(=O)c1cc(=O)[nH]c(C(C)(C)c2ccc(OC)cc2)n1)c1ccc(OC(F)(F)F)cc1 [Example 505] , I see its Ki listed as 84

Looking up COc1ccc(Cc2nc(C(=O)N[C@@H](c3ccc(OC(F)(F)F)c(F)c3)C(C)(C)C)cc(=O)[nH]2)cc1 [Example 464] , I see its Ki listed as 0.6

Looking up Cc1nc(C(=O)N[C@@H](c2ccc(C(F)(F)F)cc2)C2(C)CC2)cc(=O)[nH]1 [Example 612] , I see its Ki listed as 11

Looking up COc1ccc(Cc2nc(C(=O)N[C@@H](c3ccc(OC(F)(F)F)c(F)c3)C(C)C)cc(=O)[nH]2)cc1 [Example 473] , I see its Ki listed as 1.1

Looking up COc1ccc(C(C)(C)c2nc(C(=O)N[C@@H](c3ccc(OC(F)(F)F)c(F)c3)C3CC3)cc(=O)[nH]2)cc1 [Example 498] , I see its Ki listed as 65

Looking up CC(C)(C)[C@@H](NC(=O)c1cc(=O)[nH]c(-c2ccccc2)n1)c1ccc(OC(F)F)cc1 [Example 449] , I see its Ki listed as 2.6

Looking up CC(C)[C@@H](NC(=O)c1cc(=O)[nH]c(-c2ccccc2)n1)c1ccc(SC(F)(F)F)cc1 [Example 419] , I see its Ki listed as 3.3

Looking up O=C(NC1(c2ccccc2OC(F)(F)F)CC1)c1cc(=O)[nH]c(-c2ccccc2)n1 [Example 380] , I see its Ki listed as 353

Looking up C[C@@H](NC(=O)c1cc(=O)[nH]c(-c2ncccn2)n1)c1ccc(C2CC2)cc1 [Example 250] , I see its Ki listed as 5.4

Looking up COc1ccc(Cc2nc(C(=O)N[C@@H](c3ccc(OC(F)(F)F)cc3)C(C)C)cc(=O)[nH]2)cc1 [Example 475] , I see its Ki listed as 1.3

Looking up Cc1nc(C(=O)N[C@H](C)c2ccc(C3CC3)c(F)c2)cc(=O)[nH]1 [Example 620] , I see its Ki listed as 15

Looking up CC(C)(NC(=O)c1cc(=O)[nH]c(C2CC2)n1)c1ccc(S(F)(F)(F)(F)F)cc1 [Example 680] , I see its Ki listed as 80

Looking up CC(C)[C@@H](NC(=O)c1cc(=O)[nH]c(-c2ncccn2)n1)c1ccc(OC(F)(F)F)c(F)c1 [Example 74] , I see its Ki listed as 4.8

Looking up COc1ccc(Cc2nc(C(=O)N[C@@H](c3ccc(C(F)(F)F)c(F)c3)C(C)C)cc(=O)[nH]2)cc1F [Example 514] , I see its Ki listed as 2.2

Looking up N#CC(NC(=O)c1cc(=O)[nH]c(-c2ccccc2)n1)c1ccc(C(F)(F)F)cc1 (stereo not drawn) [Example 413] , I see its Ki listed as 105

Looking up CC(NC(=O)c1cc(=O)[nH]c(-c2ccccc2)n1)c1cccc(Cl)c1 (stereo not drawn) [Example 368] , I see its Ki listed as 1100

Looking up CC[C@@H](NC(=O)c1cc(=O)[nH]c(-c2ccccc2)n1)c1ccc(S(F)(F)(F)(F)F)cc1 [Example 386] , I see its Ki listed as 8.1

Looking up CC[C@@H](NC(=O)c1cc(=O)[nH]c(Cc2ccc(OC)cc2)n1)c1ccc(OC(F)(F)F)cc1 [Example 485] , I see its Ki listed as 1.9
